Data provenance is ChEMBL document CHEMBL4431321.

# testedTarget: Dihydrofolate reductase (Homo sapiens)
# Sequence (P00374 whole entry): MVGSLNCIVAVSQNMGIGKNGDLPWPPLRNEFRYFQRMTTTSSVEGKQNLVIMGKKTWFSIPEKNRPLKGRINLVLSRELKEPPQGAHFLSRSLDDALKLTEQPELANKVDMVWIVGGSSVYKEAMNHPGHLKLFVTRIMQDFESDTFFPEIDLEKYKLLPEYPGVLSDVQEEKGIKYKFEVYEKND
# testProtocol: Inhibition of human DHFR using folic aid as substrate by spectrophotometric analysis
measuredQuantity: pIC50
Worth noting: pIC50 values are minus log10 of concentrations stated in mol/L.

The compound listed as O=c1c(O)c(-c2cccc(O)c2)oc2ccc(O)cc12 shows pIC50 equal to 4.30

###

# System: Leishmania mexicana
# testProtocol: Inhibition of Leishmania mexicana DHFR at 50 uM using folic aid as substrate by spectrophotometric analysis
Give measured inhibition for each item. Keep answers brief.

Sure, the documented inhibition for O=c1c(O)c(-c2cc(O)c(O)c(O)c2)oc2cc(O)ccc12 is < 25%

The value of inhibition measured for the molecule O=c1c(O)c(-c2cccc(O)c2)oc2ccc(O)cc12 turned out to be 42 to 43%

The molecule identified as O=c1c(O)c(-c2cccc(O)c2)oc2ccccc12 registered its inhibition at 42 to 43%

Please fill in: inhibition reported for O=c1c(O)c(-c2ccc(O)c(O)c2)oc2cc(O)ccc12 = < 25%

inhibition measured on O=c1c(O)c(-c2ccc(O)c(O)c2)oc2ccc(O)cc12 = < 25%

Field inhibition (entry O=c1c(O)c(-c2ccc(O)cc2)oc2cc(O)ccc12 ) reads < 25%

O=c1c(O)c(-c2ccc(O)cc2)oc2ccc(O)cc12 yielded inhibition of < 25%

Kindly note the recorded inhibition for O=c1c(O)c(-c2cccc(O)c2)oc2cc(O)ccc12 , which is < 25%
